assay: Solubility in water of mediators; assay type: physicochemical; conditions: water
OBSERVED_PROPERTY: solubility (mM)
Report the figure in mM without appending any unit label.

In: # lookup: solubility of O=C1C(=O)c2cc(S(=O)(=O)[O-])ccc2-c2ccccc21.[Na+]
Out: 80

----------
test: Cyclic voltammetry of mediators, redox potential vs Ag|AgCl; type: physicochemical; conditions: potential at peak reduction current; reference Ag|AgCl
Just a reminder that ties go to condition not met: only Ered (V) strictly below -0.2 V counts as condition met.

Worked cases, answers included:
O=C1C(=O)c2cc(-c3ccc(S(=O)(=O)[O-])cc3)ccc2-c2ccccc21.[Na+] | condition met
O=C1C(=O)c2cc(S(=O)(=O)[O-])ccc2-c2ccc(S(=O)(=O)[O-])cc21.[Na+].[Na+] | condition not met
O=C1C(=O)c2cc(S(=O)(=O)[O-])ccc2-c2ccccc21.[Na+] | condition not met
O=C(NCCS(=O)(=O)[O-])c1ccc(-c2ccc3c(c2)C(=O)C(=O)c2ccccc2-3)cc1.[Na+] | condition met
Nc1ccc2c(c1)C(=O)C(=O)c1ccccc1-2 | condition met

In: Lab note: Ered (V) threshold -0.2 V. Does this compound come in strictly under it? O=C([O-])c1ccc(-c2ccc3c(c2)C(=O)C(=O)c2ccccc2-3)cc1.[Na+]
Out: condition met

In: Lab note: Ered (V) threshold -0.2 V. Does this compound come in strictly under it? O=C1C(=O)c2cc([N+](=O)[O-])ccc2-c2ccccc21
Out: condition not met

In: Lab note: Ered (V) threshold -0.2 V. Does this compound come in strictly under it? O=C([O-])c1cc(C(=O)[O-])cc(-c2ccc3c(c2)C(=O)C(=O)c2ccccc2-3)c1.[Na+].[Na+]
Out: condition met
